# assay.target: SARS-CoV-2 Spike S1 (Wuhan; S1 or RBD) (Severe acute respiratory syndrome …, UniProt P0DTC2)
# protocol: SPR
pKd: −log10 of the molar value.
Collected pKd values appear next to each entry.

- binder: "CoV2-YD-9 (antibody, V domains shown) VH: QVQLVESGGGLVQAGGSVRLSCAASGITFSNYASQWFRQTPGKAREFVAAISGGGTTSYAASVKGRFTLSRDNAKNTVYLQMNDLKFEDTAVYYCHTADLYSDYWGQGTQVTVS"
  pKd: 10.79
- binder: "CoV2-YD-8 (antibody, V domains shown) VH: QVQLVESGGGLVQPGGSLSLSCAASGSMNSMNPMGWYRQAPGKEREVVARISSGGSTTYTDSVKGRFTISRDSAKNTVYLQMNSLKPDDTAVYYCYIIDDYGVQYWGKGTQVTVS"
  pKd: 9.90
- binder: "CoV2-YD-3 (antibody, V domains shown) VH: QVQLVESGGGLVQAGGSLRLSCVASTTWFSNFGMGWYRQAPGKQRELVAGITYDGTTKYVDSVKGRSTIARDNAKNTVSLQMNSVKPGDTAIYYCNTYPSQLWNWGQGTQVTVS"
  pKd: 10.39
- binder: "CoV2-YD-33 (antibody, V domains shown) VH: DVQLVESGGGLVQAGGSLRLSCVASGSTDSNYVMGWHRQTSGKQSEWVASIESGGEKKIVDSVKGRFTISRDNAKNTVYLQMNSLKPEDTAVYYCFYERLAWDTSTYWGQGTQVTVS"
  pKd: 8.45
